# Test system: KM12
# experiment: NCI tumour cell line growth inhibition, 48 h
Calls of active or inactive are those of the source. Cut-off read from the data, not from the text of the source: active = GI50 up to about 1.1 µM and inactive = higher.
Pick one: true (1) for active, false (0) for inactive

Known results for molecules:
molecule: CC(=O)O[C@H]1C(=O)[C@@]2(C)[C@H]([C@H](OC(=O)c3ccoc3)[C@]3(O)C[C@H](OC(=O)[C@H](O)[C@@H](NC(=O)c4ccccc4)c4ccccc4)C(C)=C1C3(C)C)[C@]1(OC(C)=O)CO[C@@H]1C[C@@H]2O
class.label: true (1)

molecule: O=C(CCc1cccc(O)c1)NCCc1cccc(O)c1
class.label: false (0)

molecule: Cc1nc2cc(N)c(F)cc2[nH]1
class.label: false (0)

molecule: [O-][N+]1=C2CCC/C(=N/O)C2(O)C2CCCCC21N1CCOCC1 (stereo unspecified)
class.label: false (0)

molecule: COc1cc2c(cc1OCCCOc1cc3c(cc1OC)C(=O)N1CCC[C@H]1CN3)N=C[C@@H]1CCCN1C2=O
class.label: true (1)

Now let's try a different one.
Ask | Can you look up the reported call for COC(=O)/C(C#N)=C1\CCC(O)N1 (stereo unspecified) for me?
Reply | false (0)

* * *

# System: BT-549
# experiment: NCI tumour cell line growth inhibition, 48 h
The source made the active and inactive calls. Cut-off read from the data, not from the text of the source: active = GI50 up to about 1.1 µM and inactive = higher.
property: GI50

molecule: CCOC(=O)N(c1ccccc1)c1cc(=O)n2ccccc2n1
GI50: > 100 µM (inactive)

Quick note, GI50 for O=C(O)/C=C/C=C/c1ccc2c(c1)OCO2 [PIPERIC ACID] landed at > 100 µM (inactive)

Quick note, GI50 for CN(CCN1CCCC1)C1CCc2cc(Cl)c(Cl)cc2C1 (stereo unspecified) landed at 14.9 µM (inactive)

Quick note, GI50 for CCNC(=O)/C(=C/c1ccc(OC)cc1)c1cc(OC)c(OC)c(OC)c1 landed at 14.4 µM (inactive)

Quick note, GI50 for O=c1[nH]c2nccn2c(Cl)c1Br landed at 18.7 µM (inactive)

Quick note, GI50 for O=C1Cc2c(-c3ccccc3)cc(-c3ccc4ccccc4c3)nc2-c2ccccc2N1 landed at 27.4 µM (inactive)

* * *

# Tested on: TK-10
# experiment: NCI tumour cell line growth inhibition, 48 h
The source made the active and inactive calls. Cut-off read from the data, not from the text of the source: active = GI50 up to about 1.1 µM and inactive = higher.
property: GI50

Worked cases, answers included:
molecule: O=C(O)Cc1c(O)ccc2ccccc12
GI50: > 100 µM (inactive)

molecule: CNC(=O)OCc1c(COC(=O)NC)c(C)n(-c2ccc(Br)cc2)c1C
GI50: 11 µM (inactive)

molecule: COc1cc(C(=O)Oc2c(C(C)=O)sc3c2c(=O)n(-c2ccccc2)c(=S)n3-c2ccccc2)cc(OC)c1OC
GI50: 38.9 µM (inactive)

molecule: O=c1c2cc([N+](=O)[O-])ccc2n2n1Cc1ccccc1CC2
GI50: 38.1 µM (inactive)

molecule: CC(C)=CC(=O)CC(=O)C(=O)NCCNC(=O)C(=O)CC(=O)C=C(C)C
GI50: > 50 µM (inactive)

Quick note, GI50 for CN(C)/C=N/S(=O)(=O)c1nn2c(C=O)c(-c3ccc(-c4ccccc4)cc3)nc2s1 landed at 1.83 µM (inactive)

Quick note, GI50 for CCCn1c(SC)nc(COC(=O)NC)c1COC(=O)NC landed at > 100 µM (inactive)

Quick note, GI50 for CCOC(=O)c1c(C)cc(=O)n2c1[nH]c1ccccc12 landed at 99.3 µM (inactive)

Quick note, GI50 for COC(=O)C1=C(C(=O)OC)C23CC1C1C(C(=O)OC)=C(C(=O)OC)C12C1C=CC3C2C(=O)OC(=O)C21 (stereo not given) landed at > 100 µM (inactive)

Quick note, GI50 for NC1CCCCC1.O=C(O)C(CP(=O)(O)O)=C(Cl)Cl landed at > 100 µM (inactive)
